protocolSummary: Estimated solubility of HM30181 mesylate Type A starting material in solvents (stepwise solvent addition)
Format: physicochemical
testParameters: organic solvent or mixture, thermodynamic from solid; solvent NMP
observationType: solubility

Please give measured solubility of the following entry: COc1cc2c(cc1OC)CN(CCc1ccc(-n3nnc(-c4cc(OC)c(OC)cc4NC(=O)c4cc(=O)c5ccccc5o4)n3)cc1)CC2.CS(=O)(=O)O [HM30181 mesylate Type A, HM30181 mesylate]
4800 to 6300 µg/mL

====

protocolSummary: Estimated solubility of HM30181 mesylate Type A starting material in solvents (stepwise solvent addition)
Format: physicochemical
testParameters: organic solvent or mixture, thermodynamic from solid; solvent 2-MeTHF
observationType: solubility

Look up and report measured solubility for this entry: COc1cc2c(cc1OC)CN(CCc1ccc(-n3nnc(-c4cc(OC)c(OC)cc4NC(=O)c4cc(=O)c5ccccc5o4)n3)cc1)CC2.CS(=O)(=O)O [HM30181 mesylate Type A, HM30181 mesylate]
< 1000 µg/mL

====

protocolSummary: Estimated solubility of HM30181 mesylate Type A starting material in solvents (stepwise solvent addition)
Assay type: physicochemical
testParameters: organic solvent or mixture, thermodynamic from solid; solvent THF
observationType: solubility

Report solubility, nothing else, for this compound: COc1cc2c(cc1OC)CN(CCc1ccc(-n3nnc(-c4cc(OC)c(OC)cc4NC(=O)c4cc(=O)c5ccccc5o4)n3)cc1)CC2.CS(=O)(=O)O [HM30181 mesylate Type A, HM30181 mesylate]
< 1000 µg/mL

====

protocolSummary: Estimated solubility of HM30181 mesylate Type A starting material in solvents (stepwise solvent addition)
Format: physicochemical
testParameters: organic solvent or mixture, thermodynamic from solid; solvent IPOAc
observationType: solubility

Identify the reported solubility for the following entry. COc1cc2c(cc1OC)CN(CCc1ccc(-n3nnc(-c4cc(OC)c(OC)cc4NC(=O)c4cc(=O)c5ccccc5o4)n3)cc1)CC2.CS(=O)(=O)O [HM30181 mesylate Type A, HM30181 mesylate]
< 1000 µg/mL

====

protocolSummary: Estimated solubility of HM30181 mesylate Type A starting material in solvents (stepwise solvent addition)
Type: physicochemical
testParameters: organic solvent or mixture, thermodynamic from solid; solvent IPA
observationType: solubility

For the compound COc1cc2c(cc1OC)CN(CCc1ccc(-n3nnc(-c4cc(OC)c(OC)cc4NC(=O)c4cc(=O)c5ccccc5o4)n3)cc1)CC2.CS(=O)(=O)O [HM30181 mesylate Type A, HM30181 mesylate] , give its reported solubility.
< 1000 µg/mL

====

protocolSummary: Estimated solubility of HM30181 mesylate Type A starting material in solvents (stepwise solvent addition)
Type: physicochemical
testParameters: organic solvent or mixture, thermodynamic from solid; solvent ACN
observationType: solubility

Read the entry COc1cc2c(cc1OC)CN(CCc1ccc(-n3nnc(-c4cc(OC)c(OC)cc4NC(=O)c4cc(=O)c5ccccc5o4)n3)cc1)CC2.CS(=O)(=O)O [HM30181 mesylate Type A, HM30181 mesylate] and write its reported solubility.
< 1000 µg/mL

====

protocolSummary: Estimated solubility of HM30181 mesylate Type A starting material in solvents (stepwise solvent addition)
Format: physicochemical
testParameters: organic solvent or mixture, thermodynamic from solid; solvent 1,4-Dioxane
observationType: solubility

Tell us which solubility value is on record for COc1cc2c(cc1OC)CN(CCc1ccc(-n3nnc(-c4cc(OC)c(OC)cc4NC(=O)c4cc(=O)c5ccccc5o4)n3)cc1)CC2.CS(=O)(=O)O [HM30181 mesylate Type A, HM30181 mesylate]
< 1000 µg/mL

====

protocolSummary: Estimated solubility of HM30181 mesylate Type A starting material in solvents (stepwise solvent addition)
Assay type: physicochemical
testParameters: organic solvent or mixture, thermodynamic from solid; solvent MIBK
observationType: solubility

Give solubility for COc1cc2c(cc1OC)CN(CCc1ccc(-n3nnc(-c4cc(OC)c(OC)cc4NC(=O)c4cc(=O)c5ccccc5o4)n3)cc1)CC2.CS(=O)(=O)O [HM30181 mesylate Type A, HM30181 mesylate]
< 1000 µg/mL

====

protocolSummary: Estimated solubility of HM30181 mesylate Type A starting material in solvents (stepwise solvent addition)
Format: physicochemical
testParameters: organic solvent or mixture, thermodynamic from solid; solvent DMA
observationType: solubility

Note down solubility recorded for COc1cc2c(cc1OC)CN(CCc1ccc(-n3nnc(-c4cc(OC)c(OC)cc4NC(=O)c4cc(=O)c5ccccc5o4)n3)cc1)CC2.CS(=O)(=O)O [HM30181 mesylate Type A, HM30181 mesylate]
3200 to 4800 µg/mL

====

protocolSummary: Estimated solubility of HM30181 mesylate Type A starting material in solvents (stepwise solvent addition)
Type: physicochemical
testParameters: organic solvent or mixture, thermodynamic from solid; solvent n-Propyl acetate
observationType: solubility

Please list solubility recorded for the molecule COc1cc2c(cc1OC)CN(CCc1ccc(-n3nnc(-c4cc(OC)c(OC)cc4NC(=O)c4cc(=O)c5ccccc5o4)n3)cc1)CC2.CS(=O)(=O)O [HM30181 mesylate Type A, HM30181 mesylate]
< 1000 µg/mL

====

protocolSummary: Estimated solubility of HM30181 mesylate Type A starting material in solvents (stepwise solvent addition)
Format: physicochemical
testParameters: organic solvent or mixture, thermodynamic from solid; solvent Cyclohexane
observationType: solubility

Give the value of solubility reported for the following: COc1cc2c(cc1OC)CN(CCc1ccc(-n3nnc(-c4cc(OC)c(OC)cc4NC(=O)c4cc(=O)c5ccccc5o4)n3)cc1)CC2.CS(=O)(=O)O [HM30181 mesylate Type A, HM30181 mesylate]
< 1000 µg/mL

====

protocolSummary: Estimated solubility of HM30181 mesylate Type A starting material in solvents (stepwise solvent addition)
Type: physicochemical
testParameters: organic solvent or mixture, thermodynamic from solid; solvent MTBE
observationType: solubility

Supply measured solubility of COc1cc2c(cc1OC)CN(CCc1ccc(-n3nnc(-c4cc(OC)c(OC)cc4NC(=O)c4cc(=O)c5ccccc5o4)n3)cc1)CC2.CS(=O)(=O)O [HM30181 mesylate Type A, HM30181 mesylate] in your reply.
< 1000 µg/mL

====

protocolSummary: Estimated solubility of HM30181 mesylate Type A starting material in solvents (stepwise solvent addition)
Format: physicochemical
testParameters: organic solvent or mixture, thermodynamic from solid; solvent Toluene
observationType: solubility

For the compound COc1cc2c(cc1OC)CN(CCc1ccc(-n3nnc(-c4cc(OC)c(OC)cc4NC(=O)c4cc(=O)c5ccccc5o4)n3)cc1)CC2.CS(=O)(=O)O [HM30181 mesylate Type A, HM30181 mesylate] , give its measured solubility value.
< 1000 µg/mL

====

protocolSummary: Estimated solubility of HM30181 mesylate Type A starting material in solvents (stepwise solvent addition)
Assay type: physicochemical
testParameters: organic solvent or mixture, thermodynamic from solid; solvent CHCl3
observationType: solubility

Tell me its solubility given COc1cc2c(cc1OC)CN(CCc1ccc(-n3nnc(-c4cc(OC)c(OC)cc4NC(=O)c4cc(=O)c5ccccc5o4)n3)cc1)CC2.CS(=O)(=O)O [HM30181 mesylate Type A, HM30181 mesylate] as the entry.
5000 to 6700 µg/mL

====

protocolSummary: Estimated solubility of HM30181 mesylate Type A starting material in solvents (stepwise solvent addition)
Type: physicochemical
testParameters: organic solvent or mixture, thermodynamic from solid; solvent MeOH
observationType: solubility

Let me know recorded solubility for COc1cc2c(cc1OC)CN(CCc1ccc(-n3nnc(-c4cc(OC)c(OC)cc4NC(=O)c4cc(=O)c5ccccc5o4)n3)cc1)CC2.CS(=O)(=O)O [HM30181 mesylate Type A, HM30181 mesylate] , thanks.
1700 to 2000 µg/mL

====

protocolSummary: Estimated solubility of HM30181 mesylate Type A starting material in solvents (stepwise solvent addition)
Type: physicochemical
testParameters: organic solvent or mixture, thermodynamic from solid; solvent n-Heptane
observationType: solubility

Identify the reported solubility for the following entry. COc1cc2c(cc1OC)CN(CCc1ccc(-n3nnc(-c4cc(OC)c(OC)cc4NC(=O)c4cc(=O)c5ccccc5o4)n3)cc1)CC2.CS(=O)(=O)O [HM30181 mesylate Type A, HM30181 mesylate]
< 1 mg/mL

====

protocolSummary: Estimated solubility of HM30181 mesylate Type A starting material in solvents (stepwise solvent addition)
Assay type: physicochemical
testParameters: water, thermodynamic from solid; solvent H2O
observationType: solubility

Complete the entry with solubility for COc1cc2c(cc1OC)CN(CCc1ccc(-n3nnc(-c4cc(OC)c(OC)cc4NC(=O)c4cc(=O)c5ccccc5o4)n3)cc1)CC2.CS(=O)(=O)O [HM30181 mesylate Type A, HM30181 mesylate]
< 1000 µg/mL

====

protocolSummary: Estimated solubility of HM30181 mesylate Type A starting material in solvents (stepwise solvent addition)
Assay type: physicochemical
testParameters: organic solvent or mixture, thermodynamic from solid; solvent DMSO
observationType: solubility

Specify solubility for COc1cc2c(cc1OC)CN(CCc1ccc(-n3nnc(-c4cc(OC)c(OC)cc4NC(=O)c4cc(=O)c5ccccc5o4)n3)cc1)CC2.CS(=O)(=O)O [HM30181 mesylate Type A, HM30181 mesylate] and stop.
22 to 44 mg/mL
